B1: ZNF263 (parent)
chain: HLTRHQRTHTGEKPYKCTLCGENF

- Variants of: B1
- assay-method-text: protein stability index of a GFP-peptide fusion (GPS, HEK-293T) (PSI 1-6); higher = more stable;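 note: lentivirally expressed fusions sorted by FACS into six bins by GFP to DsRed ratio, PSI derived from sequencing read proportions per bin multiplied by bin number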
- run-conditions: c terminus: a fixed tail appended
Quick list: protein stability index per entry.
Give the figure by itself; no unit, no explanation.

Example variants with recorded protein stability index:
| sequence-change | protein stability index |
| --- | --- |
| Q6W | 2.04 |
| C20Y | 2.77 |
| P14H | 3.01 |
| R7I | 2.4 |
| P14F | 2.78 |
| H1F | 1.36 |
| H1M | 3.02 |
| T10P | 2.45 |

Q. So what does the record say about protein stability index for `C20G` ?
A. 2.92

Q. Then `H5R` ?
A. 2.74

Q. Then `G11C` ?
A. 4.07

Hello, the source for this data is the supplement of paper PMC10567573, in case you need it.
